All figures here come from patent US8193218B2.

target: UniProt F1MIX5
Sequence (F1MIX5 1-407): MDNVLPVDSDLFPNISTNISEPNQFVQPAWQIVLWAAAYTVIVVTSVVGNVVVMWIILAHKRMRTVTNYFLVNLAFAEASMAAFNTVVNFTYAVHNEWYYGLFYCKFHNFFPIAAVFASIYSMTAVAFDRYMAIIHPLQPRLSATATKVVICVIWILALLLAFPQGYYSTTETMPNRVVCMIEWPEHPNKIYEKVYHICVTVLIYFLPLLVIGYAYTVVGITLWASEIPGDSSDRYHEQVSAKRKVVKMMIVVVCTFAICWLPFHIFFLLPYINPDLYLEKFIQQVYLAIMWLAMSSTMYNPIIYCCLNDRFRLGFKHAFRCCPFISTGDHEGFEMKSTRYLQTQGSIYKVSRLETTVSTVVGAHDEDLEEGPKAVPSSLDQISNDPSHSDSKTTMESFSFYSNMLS

[
  {
    "Compound": "O=C(N[C@H]1CCN(C(=O)c2cc(C(F)(F)F)cc(C(F)(F)F)c2)[C@H](Cc2ccc(Cl)cc2)C1)c1cc(O)nc2ccccc12 [Example 2]",
    "IC50": "~10 nM"
  }
]
